tgt: Bcl-xL-Beclin 1 complex (Homo sapiens, UniProt Q07817)
Construct: made in house
Sequence (Q07817 whole entry, one chain of several): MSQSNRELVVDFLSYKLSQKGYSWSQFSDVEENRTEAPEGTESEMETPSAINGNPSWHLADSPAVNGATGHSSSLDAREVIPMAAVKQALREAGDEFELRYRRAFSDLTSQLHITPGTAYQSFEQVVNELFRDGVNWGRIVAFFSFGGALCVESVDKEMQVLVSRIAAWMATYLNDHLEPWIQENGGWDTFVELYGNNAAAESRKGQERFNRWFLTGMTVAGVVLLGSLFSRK
method summary: Concentration response FP reconfirmation of HTS hits
Assay type: binding
assay setup: 20 μM; hits of first screen

{"molecule": "CC[N+](C)(CC)CCC[n+]1c(-c2ccccc2)c2cc(N)ccc2c2ccc(N)cc21.[I-].[I-] [Compound A40, PROPIDIUM IODIDE]", "Dose-response (% Inhibition) 20 μM (%)": 1.2}
{"molecule": "CCCCCCCCCCCCCCCCC(C(=O)O)C(O)(CC(=O)O)C(=O)O (stereo not shown)", "Dose-response (% Inhibition) 20 μM (%)": 9.1}
{"molecule": "C[n+]1c2cc(N)ccc2cc2ccc(N)cc21.[Cl-] [Compound A26, ACRIFLAVINIUM HYDROCHLORIDE]", "Dose-response (% Inhibition) 20 μM (%)": 102.5}
{"molecule": "CCN(CC)CCNC(=O)COc1ccc(OC)cc1.Cl [Compound A32, MEFEXAMIDE HYDROCHLORIDE]", "Dose-response (% Inhibition) 20 μM (%)": 4.3}
